Test system: PC-12
assay_explanation: Antioxidant activity against H2O2-induced cell damage in rat PC12 cells assessed as cell viability at 1 uM after 24 hrs by MTT assay (reference value: 64.34 +/- 1.02 %)
Format: functional
assay_conditions: PC-12, 24 h, read-out: Activity
readout_label: viability at 1 µM (%)
Reply numerically in %, unit not repeated.

Example entries and their recorded answers appear below.
C[C@]12CCC[C@](C)(C(=O)O)[C@@H]1CC[C@@]13CC[C@@H]([C@H](O)[C@H]21)[C@]1(C)O[C@H]31 = 68.2
CC1=C2C[C@H]3[C@H](CC[C@]3(C)O)[C@@](C)(O)C[C@@H]2OC1=O = 73.1
CC1=C2CC(=O)[C@@H](C)CC/C=C(\C)C[C@@]2(O)OC1=O = 74.5

Look up and state reported viability at 1 µM for `CC(C)=C1C[C@]2(O)[C@@H](CC[C@@H]2C)[C@@](C)(O)CC1=O`
66.3

Look up and state reported viability at 1 µM for `CC1=C2CC[C@](C)(O)[C@H]2CC2=C(C)C(=O)OC2=C1`
82.9

Look up and state reported viability at 1 µM for `CC1=CC(=O)O[C@@]2(CC(=O)C(C)C)[C@@H](C)CC[C@@H]12`
73.4

Look up and state reported viability at 1 µM for `CC1(C)CCC[C@]2(C)[C@@H]1CC[C@](O)(CO)[C@H]2C/C=C1\CCOC1=O`
67.6
